assay_explanation: enhancers of STAT3 transcriptional signaling – U3A cells, luciferase, luminescence, MLSCN library, primary screen (AID 871);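 further: 0% = background luminescence of wells with medium and substrate only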
test_context: IL-6 STAT3-luciferase reporter, at 5.6 µM, 100% = signal with IL-6 EC80 alone
In all, about 190,000 compounds went through this assay and about 1,800 (0.95%) were called active.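 How the source made its calls: active means activation above the screen-wide mean of compound activation plus 3 SD (cut at about 130% in these data); inactive means the rest.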 The full list was thinned out, with actives kept by preference.
Outcome codes: class 1 for active, class 0 for inactive

{"columns": ["compound", "class_name"],
 "data": [
  ["Fc1ccc(-c2nnc(CSc3nnc(-c4ccc5c(c4)OCO5)o3)o2)cc1", "class 0"],
  ["S=C(NCCc1ccccc1)N1CCn2cccc2C1c1ccncc1 (stereo not drawn)", "class 0"],
  ["O=C(NCc1ccco1)c1cccn2c(=O)c3c4c(sc3nc12)CCCC4", "class 1"]
]}

###

assay_explanation: enhancers of STAT3 transcriptional signaling – U3A cells, luciferase, luminescence, MLSCN library, primary screen (AID 871);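 further: 0% = background luminescence of wells with medium and substrate only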
test_context: IL-6 STAT3-luciferase reporter, at 5.6 µM, hits give high values, 100% = signal with IL-6 EC80 alone
Out of some 190,000 compounds screened, about 1,800 (0.95%) were called active. What follows is part of a selection rich in actives, with near analogues and random picks from the rest.

{"columns": ["molecule", "units_symbol", "activation (% of control)"],
 "data": [
  ["CC12CN(NC(=O)c3ccc(Cl)cc3)C3(C#N)CC1CCC23C (centres undefined)", "%", 104],
  ["Cc1sc2nc(CC(N)=O)[nH]c(=O)c2c1-c1ccccc1", "%", 96.5],
  ["CN(NC(=O)c1ccccc1)c1nc2ccccc2nc1C(F)(F)F", "%", 96],
  ["COc1cc(C(=O)Nc2nccs2)cc(OC)c1OC", "%", 81]
]}

###

The following compounds are listed with their measured activation (% of control) values.
assay_explanation: enhancers of STAT3 transcriptional signaling – U3A cells, luciferase, luminescence, MLSCN library, primary screen (AID 871);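 further: 0% = background luminescence of wells with medium and substrate only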
test_context: IL-6 STAT3-luciferase reporter, at 5.6 µM, hits give high values, 100% = signal with IL-6 EC80 alone
Among all 190,000 compounds or so, about 1,800 (0.95%) were called active. The list comes from a sample in which actives are over-represented; it also holds close analogues and randomly drawn compounds.
metric: activation (% of control) (%)

{"columns": ["compound", "reported_value"],
 "data": [
  ["COc1ccccc1NC(=O)CCCc1c[nH]c2ccccc12", 88.8],
  ["CCC1C(=O)c2ccccc2N(C)C1=O (stereo not drawn)", 110],
  ["O=C(Cc1c[nH]c2ccccc12)OCCOC(=O)Cc1c[nH]c2ccccc12", 136]
]}
